assay: Pharmacokinetics of acteoside and its metabolites in rat plasma after oral acteoside (UPLC-QqQ-MS); type: in vivo, male Sprague–Dawley rats; details: male, Sprague-Dawley, rat, plasma, po, 100 mg/kg, metabolite in rat plasma following oral acteoside 100 mg/kg, UCP group, n = 6
quantity kind: AUC(0-inf) (ng·h/mL)
Respond numerically; units are ng·h/mL and should not be typed.

molecule="OCCc1ccc(O)c(O)c1 [Hydroxytyrosol, hydroxytyrosol]" unit_descriptor=ng·h/mL reported=60.5

Query AUC(0-inf) for O=C(O)/C=C/c1ccc(O)c(O)c1
117
